Provenance of the data: ChEMBL document CHEMBL1153814

- study-system: Glycogen phosphorylase, muscle form (Oryctolagus cuniculus, UniProt P00489)
- Sequence (P00489 whole entry): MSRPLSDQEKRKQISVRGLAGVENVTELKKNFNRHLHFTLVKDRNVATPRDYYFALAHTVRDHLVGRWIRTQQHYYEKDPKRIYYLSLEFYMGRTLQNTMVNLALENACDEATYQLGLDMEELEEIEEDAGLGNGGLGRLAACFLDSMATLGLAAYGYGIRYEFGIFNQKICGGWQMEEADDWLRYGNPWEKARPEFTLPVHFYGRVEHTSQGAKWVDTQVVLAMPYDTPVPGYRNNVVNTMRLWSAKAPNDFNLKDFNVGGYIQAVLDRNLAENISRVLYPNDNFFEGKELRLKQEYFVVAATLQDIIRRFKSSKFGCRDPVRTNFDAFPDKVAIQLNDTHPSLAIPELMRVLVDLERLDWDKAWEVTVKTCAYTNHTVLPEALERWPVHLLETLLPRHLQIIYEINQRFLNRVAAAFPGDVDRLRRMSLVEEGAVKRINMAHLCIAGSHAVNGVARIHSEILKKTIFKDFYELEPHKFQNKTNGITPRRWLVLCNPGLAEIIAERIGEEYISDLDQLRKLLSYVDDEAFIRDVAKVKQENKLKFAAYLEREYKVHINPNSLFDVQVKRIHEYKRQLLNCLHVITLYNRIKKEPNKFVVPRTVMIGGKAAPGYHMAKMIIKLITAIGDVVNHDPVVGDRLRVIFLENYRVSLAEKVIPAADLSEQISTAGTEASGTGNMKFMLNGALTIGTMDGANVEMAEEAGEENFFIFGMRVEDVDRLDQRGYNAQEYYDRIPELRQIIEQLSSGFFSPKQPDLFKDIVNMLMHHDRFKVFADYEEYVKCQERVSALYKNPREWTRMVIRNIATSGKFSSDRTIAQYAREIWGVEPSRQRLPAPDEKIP
- assay-notes: Inhibition of rabbit muscle glycogen phosphorylase assessed as release of phosphate from glucose-1-phosphate after 25 mins
- assay-context: read-out: IC50
quantity-kind: pIC50
Quick note: pIC50 means taking -log10 of the concentration in moles per liter.

| compound | pIC50 |
| --- | --- |
| CC1(C)CC[C@]2(C(=O)O)CC[C@]3(C)C(=CC[C@@H]4[C@@]5(C)C[C@@H](OC(=O)c6ccccc6)CC(C)(C)[C@@H]5CC[C@]43C)[C@@H]2C1 | 4.39 |
| C[C@H]1[C@H](C)CC[C@]2(C(=O)O)CC[C@]3(C)C(=CC[C@@H]4[C@@]5(C)CC[C@H](O)C(C)(C)[C@@H]5CC[C@]43C)[C@H]12 | 4.82 |
| C[C@H]1[C@H](C)CC[C@]2(C(=O)OCc3ccccc3)CC[C@]3(C)C(=CC[C@@H]4[C@@]5(C)C/C(=N\O)CC(C)(C)[C@@H]5CC[C@]43C)[C@H]12 | 4.69 |
| CC1(C)CC[C@]2(C(=O)OCc3ccccc3)CC[C@]3(C)C(=CC[C@@H]4[C@@]5(C)C[C@H](O)CC(C)(C)[C@@H]5CC[C@]43C)[C@@H]2C1 | 5.38 |
| C[C@@H]1[C@H]2C3=CC[C@@H]4[C@@]5(C)C[C@@H](O)CC(C)(C)[C@@H]5CC[C@@]4(C)[C@]3(C)CC[C@@]2(C(=O)OCc2ccccc2)CCC1(C)C | 5.25 |

Kindly consider the entry below.
Per the record, "C[C@@H]1[C@H]2C3=CC[C@@H]4[C@@]5(C)C[C@H](O)CC(C)(C)[C@@H]5CC[C@@]4(C)[C@]3(C)CC[C@@]2(C(=O)O)CC[C@@H]1C" has pIC50 of 5.26
